- Assay system: C5AR1 (Homo sapiens)
- Sequence (P21730 whole entry): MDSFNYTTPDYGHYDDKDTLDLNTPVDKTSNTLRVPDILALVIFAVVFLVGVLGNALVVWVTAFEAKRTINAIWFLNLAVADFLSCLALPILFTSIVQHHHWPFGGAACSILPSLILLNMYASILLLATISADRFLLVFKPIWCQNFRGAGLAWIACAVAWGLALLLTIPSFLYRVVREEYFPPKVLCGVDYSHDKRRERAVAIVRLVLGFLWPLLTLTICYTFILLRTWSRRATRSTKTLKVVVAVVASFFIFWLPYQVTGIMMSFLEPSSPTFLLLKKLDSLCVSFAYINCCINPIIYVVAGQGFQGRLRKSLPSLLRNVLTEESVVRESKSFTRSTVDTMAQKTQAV
- Assay procedure: In vitro assay: antagonism of C5a-induced beta-arrestin recruitment (PathHunter) in CHO-K1 C5AR1 beta-arrestin cell line
- Condition label: antagonistic activity, 1-10 nM C5a agonist, geometric mean where several measurements, read-out: C5aR IC50
Entries annotated with measured pIC50
As a rule, pIC50 stands for the negative log10 of the concentration, concentration in M.

-- ask Need pIC50 of COc1nccc(C)c1N1CCC(N2C(=O)N(Cc3ccccc3C(F)(F)F)c3c[nH]nc3C2C)CC1 (single isomer, unassigned) , thanks.
-- reply 7.60

-- ask What would you report for Cc1cccc(F)c1N1CCC(N2Cc3cn(CCNC4CC4)nc3N(Cc3ccccc3C(F)(F)F)C2=O)CC1 ?
-- reply 7.62

Each recorded value in this set is attributed to patent US11608341B2.
